Reference source: ChEMBL document CHEMBL6153107

- Test system: HeLa
- procedure.summary: Cytotoxicity against human HeLa cells assessed as inhibition of cell growth incubated for 48 hrs by DAPI staining based high-content imaging analysis
- Format: functional
pIC50: −log10 of the molar value.

- chemical.structure: "CC1=C[C@@H]2[C@@H](C[C@H](C)C1)[C@@H](O)[C@H]1C=C(C)[C@@H](C)[C@H]3[C@H](Cc4ccccc4)NC(=O)[C@]31[C@@H]2O"
  pIC50: "< 4.30"
- chemical.structure: "CC1=C[C@@H]2[C@@H]3[C@H](/C=C(/C)C[C@@H](C)C[C@H]3O)[C@@H](O)[C@]23C(=O)N[C@@H](Cc2ccccc2)[C@@H]3[C@@H]1C"
  pIC50: "< 4.30"
- chemical.structure: "CC1=C[C@@H]2/C=C/C[C@H](C)C[C@@](C)(O)/C=C/[C@@H](O)[C@]23C(=O)N[C@@H](Cc2ccccc2)[C@@H]3[C@@H]1C"
  pIC50: "< 4.30"
